- Test system: UO-31 renal
- run description: NCI tumour cell line growth inhibition, 48 h
measured quantity: TGI (µM)
Numeric answer only, unit µM assumed.

Form: compound = c1ccc2c(c1)CCN1CCc3ccccc3C1C2 (stereo not given) ; TGI = 68.9

Form: compound = CCc1ccc(Oc2c(-c3ccc(OCCc4cccc(C(F)(F)F)c4)cc3O)n[nH]c2C(F)(F)F)cc1 ; TGI = 8.08

* * *

- System: HCT-116 colon
- run description: NCI tumour cell line growth inhibition, 48 h
measured quantity: TGI

// known answers, use as guide
>>> assay_result("CNC(=O)/C=C/C1=CN2C(=O)c3ccc(C)c(O)c3NC(OC)C2C1 (stereo unspecified)")
"> 4.64 µM"
>>> assay_result("c1ccc2c(c1)CCN1CCc3ccccc3C1C2 (stereo unspecified)")
"> 100 µM"
>>> assay_result("NNC(=O)/C(NC(=O)c1ccccc1)=C(\\N)c1cccc([N+](=O)[O-])c1")
"> 100 µM"
>>> assay_result("CCC1(c2ccc(OC)c(OC)c2)CCN(S(=O)(=O)c2ccc(C)cc2)C1 (stereo unspecified)")
"> 100 µM"
>>> assay_result("CCN1C(=O)/C(=c2\\sc3n(c2=O)C2C(NN=3)N(CC)C(=O)N2CC)c2ccccc21 (stereo unspecified)")
"> 54.3 µM"

# ---- query molecule ----
Form: molecule = Cc1c2c(n3c(nc4ccccc43)c1C#N)N(c1ccc(F)cc1)CC2 ; TGI = > 100 µM
